# tested_system: TbGMPR (guanosine 5′-monophosphate reductase) (Trypanosoma brucei, UniProt Q57ZS7, W115R)
# Construct: gene Tb05.1P6.110; full-length, C-terminal histidine-tag
# experiment_summary: tryptophan fluorescence quenching
# Type: binding
# condition_description: read-out: Kd
readout_label: pKd
Please note pKd is a logarithmic value: minus log10 of concentration in mol/L. Answer with that number alone.

Which pKd is listed for `Nc1nc2c(ncn2[C@@H]2O[C@H](COP(=O)(O)OP(=O)(O)OP(=O)(O)O)[C@@H](O)[C@H]2O)c(=O)[nH]1` ?
5.17
